Values from patent US4141989A

# pest or weed control at 100 ppm listing for each entry below
Test system: Plasmopara viticola
Assay: Preventive grape downy mildew control, detached Emperor leaves (Example 5, Table I)
Type: in vivo
Details: 100 ppm, sprayed before inoculation
ASSAY METRIC: pest or weed control at 100 ppm (%)

[[record]]
compound = "O=C1OCCC1N(C(=O)CCl)c1ccc(Cl)c(Cl)c1 (stereo not shown)"
assay_metric = "pest or weed control at 100 ppm"
recorded_measurement = 89

[[record]]
compound = "COc1ccccc1N(C(=O)CCl)C1CCOC1=O (stereo not shown)"
assay_metric = "pest or weed control at 100 ppm"
recorded_measurement = 0

[[record]]
compound = "CCc1cccc(C)c1N(C(=O)CCl)C1CCOC1=O (stereo not shown)"
assay_metric = "pest or weed control at 100 ppm"
recorded_measurement = 0

[[record]]
compound = "CCC(=O)N(c1ccc(Cl)c(Cl)c1)C1CCOC1=O (stereo not shown)"
assay_metric = "pest or weed control at 100 ppm"
recorded_measurement = 0

[[record]]
compound = "COC(=O)C(C)N(C(=O)CCl)c1c(C)cccc1C (stereo not shown) [Compound 27, reference compound]"
assay_metric = "pest or weed control at 100 ppm"
recorded_measurement = 78

[[record]]
compound = "CC(C)c1ccccc1N(C(=O)CCl)C1CCOC1=O (stereo not shown)"
assay_metric = "pest or weed control at 100 ppm"
recorded_measurement = 3

[[record]]
compound = "CCc1cccc(CC)c1N(C(=O)CCl)C1CCOC1=O (stereo not shown)"
assay_metric = "pest or weed control at 100 ppm"
recorded_measurement = 0

[[record]]
compound = "Cc1ccc(N(C(=O)CCl)C2CCOC2=O)cc1C (stereo not shown)"
assay_metric = "pest or weed control at 100 ppm"
recorded_measurement = 12

[[record]]
compound = "Cc1cccc(C)c1N(C(=O)CCl)C1CC(C)OC1=O (stereo not shown)"
assay_metric = "pest or weed control at 100 ppm"
recorded_measurement = 80

[[record]]
compound = "Cc1cccc(C)c1N(C(=O)CCl)C1CCN(C(C)C)C1=O (stereo not shown)"
assay_metric = "pest or weed control at 100 ppm"
recorded_measurement = 15


---

Tested on: Plasmopara viticola
Assay: Preventive grape downy mildew control, detached Emperor leaves (Example 5, Table I)
Type: in vivo
Settings: 100 ppm, sprayed before inoculation
// values below are reported pest or weed control at 100 ppm
ASSAY METRIC: pest or weed control at 100 ppm

[[record]]
molecule = "O=C1OCCC1N(C(=O)CCl)c1c(Cl)cccc1Cl (stereo not drawn)"
assay_system = "Plasmopara viticola"
recorded_measurement = "0%"

[[record]]
molecule = "O=C1OCCC1N(C(=O)CCl)c1cc(Cl)cc(Cl)c1 (stereo not drawn)"
assay_system = "Plasmopara viticola"
recorded_measurement = "45%"

[[record]]
molecule = "CCc1ccccc1N(C(=O)CCl)C1CCOC1=O (stereo not drawn)"
assay_system = "Plasmopara viticola"
recorded_measurement = "0%"


---

Experiment: Dermal LD50 (rats)
Details: rat, in vivo, topical or ocular
ASSAY METRIC: LD50

[[record]]
compound = "Cc1cccc(C)c1N(C(=O)CCl)C1CCOC1=O (stereo not shown)"
assay_metric = "LD50"
recorded_measurement = "> 2000 mg/kg"


---

Experiment: Oral LD50 (rats)
Settings: rat, in vivo
ASSAY METRIC: LD50

[[record]]
compound = "Cc1cccc(C)c1N(C(=O)CCl)C1CCOC1=O (stereo not shown)"
recorded_measurement = "> 1000 mg/kg"

